# Test system: Septoria tritici
# Assay procedure: Test G: wheat leaf blotch on wheat seedlings, sprayed the day before inoculation, visual disease rating
# Type: in vivo
# Experimental conditions: 40 ppm (marked *); 100 = 100% disease control, 0 = no control
# Description: General protocol for preparing test suspensions for Tests A-J: The test compounds were first dissolved in acetone in an amount equal to 3% of the final volume and then suspended at the desired concentration (in ppm) in acetone and purified water (50/50 mix) containing 250 ppm of the surfactant Trem® 014 (polyhydric alcohol esters). […]
Marks after values point to notes of the source that are not given here.
Measure name: Test G disease control rating

Worked examples follow.
[
  {
    "Compound structure": "COc1cc(F)c(-n2c(C)nc(Cl)c2-c2ccc(Cl)cc2)c(F)c1",
    "Subject of test": "Septoria tritici",
    "Experimental value": "94* %"
  },
  {
    "Compound structure": "Cc1nc(Cl)n(-c2ccc(F)cc2)c1-c1c(F)ccc(F)c1F",
    "Subject of test": "Septoria tritici",
    "Experimental value": "14* %"
  },
  {
    "Compound structure": "Cc1nc(Br)n(-c2c(F)cccc2F)c1-c1ccc(Cl)cc1",
    "Subject of test": "Septoria tritici",
    "Experimental value": "96* %"
  },
  {
    "Compound structure": "Cc1nc(C)n(-c2ccc(F)cc2)c1-c1c(F)ccc(F)c1F",
    "Subject of test": "Septoria tritici",
    "Experimental value": "89* %"
  },
  {
    "Compound structure": "COc1ccc(F)c(-c2c(Cl)nc(C)n2-c2ccc(C)cc2)c1F",
    "Subject of test": "Septoria tritici",
    "Experimental value": "91* %"
  },
  {
    "Compound structure": "Fc1cc(F)c(-n2c(Cl)nc(Cl)c2-c2ccc(Cl)cc2)c(F)c1",
    "Subject of test": "Septoria tritici",
    "Experimental value": "90* %"
  }
]

# input molecule: "COc1cc(F)c(-n2c(Cl)nc(Br)c2-c2ccc(Cl)cc2)c(F)c1" ; wanted: its Test G disease control rating 94* %

Another molecule: "COc1cc(F)c(-n2c(Br)nc(Cl)c2-c2ccc(Cl)cc2)c(F)c1" 92* %

Another molecule: "C=Cc1nc(C)n(-c2ccc(Cl)cc2)c1-c1c(F)cccc1F" 13* %
